Tested on: TERT-RPE1
experiment: Here: values are normalized to the negative (DMSO; defined as 0% autophagy induction) and positive (250nM Torin1; mTOR inhibitor; defined as maximal inducer of autophagy = 100%) control compounds and represented as % of autophagy induction. […] The impact of autophagy induction on cells is complex and depends on the affected target. As such, the magnitude of a phenotype may not be equally mirrored in the %-value of autophagy induction and vice versa. The dynamics of the induction may indicate the mode of activation: e.g. activation via phosphorylation or a signaling cascade may occur fast, while activation via transcription factors may take considerably longer. […] Of note, treatment concentrations may be sub-optimal for specific compounds, leading to false negative annotations.
Format: functional, Homo sapiens
assay_setup: Compound Concentration 1 uM, Timepoint 12 hours, Culturing Media DMEM/F12 (1:1), 1 % Penicillin/Streptomycin, 10% Fetal bovin serum Add-On: No, Screening Media Control DMEM/F12 (1:1), Screening Media Samples DMEM/F12 (1:1)
test_readout: autophagy induction (%)
# unit: % | format: bare number

The examples below pair each entry with its known result.
CCOC(=O)Nc1ccc2c(c1)N(C(=O)CN(CC)CC)c1ccccc1CC2    -0.6682
O=C(O)c1ccnc(N2CC(O)(c3ccc(OCc4c(-c5c(Cl)cccc5Cl)noc4C4CC4)cc3Cl)C2)c1 [CILOFEXOR]    6.577
O=C(Nc1ccc(C(O)(C(F)(F)F)C(F)(F)F)cc1)c1ccc(C(F)(F)F)cc1    1.9218

Please indicate recorded autophagy induction of COc1cccc(Cn2cc(C(=O)Nc3ccc(C)c(S(=O)(=O)N4CCOCC4)c3)c(-c3ccc(C)cc3)n2)c1 measured with TERT-RPE1.
-3.785

Please indicate recorded autophagy induction of CC(C)c1onc(-c2c(Cl)cccc2Cl)c1COc1ccc(/C=C/c2cccc(C(=O)O)c2)c(Cl)c1 measured with TERT-RPE1.
-17.7139

Please indicate recorded autophagy induction of CCOC(=O)C1Cc2ccccc2CN1C(=O)c1ccc(SC)s1 (stereo not drawn) measured with TERT-RPE1.
141.578

Please indicate recorded autophagy induction of O=S(=O)(c1ccccc1)N(CC(F)(F)F)c1ccc(C(O)(C(F)(F)F)C(F)(F)F)cc1 measured with TERT-RPE1.
-11.1926

Please indicate recorded autophagy induction of CCOC(=O)c1ccc(C#Cc2ccc3c(c2)C(C)(C)CCS3)nc1 measured with TERT-RPE1.
-17.2771

Please indicate recorded autophagy induction of C=C1/C(=C\C=C2/CCC[C@]3(C)[C@@H]([C@H](C)/C=C/[C@H](C)C(C)C)CC[C@@H]23)C[C@@H](O)C[C@@H]1O measured with TERT-RPE1.
-0.6335

Please indicate recorded autophagy induction of COc1cc2c(cc1CC=C(C)C)C(=O)C[C@@H](c1ccc(O)cc1)O2 measured with TERT-RPE1.
-6.984

Please indicate recorded autophagy induction of CC(C)c1cc(Oc2c(Cl)cc(-n3nc(C#N)c(=O)[nH]c3=O)cc2Cl)n[nH]c1=O measured with TERT-RPE1.
-11.5681

Please indicate recorded autophagy induction of CCc1ccc(N(CC(C)C)S(=O)(=O)c2ccc(OCC3CCOCC3)c(CO)c2)cc1 measured with TERT-RPE1.
1.382

Please indicate recorded autophagy induction of CC[C@H](C)C(=O)O[C@H]1C[C@@H](C)C=C2C=C[C@H](C)[C@H](CC[C@@H]3C[C@@H](O)CC(=O)O3)[C@H]21 measured with TERT-RPE1.
-7.01
